IC50 values by entry
biological target: PDE10A (Homo sapiens, UniProt Q9Y233); assay: PDE10A inhibition, IMAP fluorescence polarization assay; format: biochemical; conditions: PDE10A inhibition IC50 μM, substrate cGMP
Sequence (Q9Y233 290-1055 limits assumed): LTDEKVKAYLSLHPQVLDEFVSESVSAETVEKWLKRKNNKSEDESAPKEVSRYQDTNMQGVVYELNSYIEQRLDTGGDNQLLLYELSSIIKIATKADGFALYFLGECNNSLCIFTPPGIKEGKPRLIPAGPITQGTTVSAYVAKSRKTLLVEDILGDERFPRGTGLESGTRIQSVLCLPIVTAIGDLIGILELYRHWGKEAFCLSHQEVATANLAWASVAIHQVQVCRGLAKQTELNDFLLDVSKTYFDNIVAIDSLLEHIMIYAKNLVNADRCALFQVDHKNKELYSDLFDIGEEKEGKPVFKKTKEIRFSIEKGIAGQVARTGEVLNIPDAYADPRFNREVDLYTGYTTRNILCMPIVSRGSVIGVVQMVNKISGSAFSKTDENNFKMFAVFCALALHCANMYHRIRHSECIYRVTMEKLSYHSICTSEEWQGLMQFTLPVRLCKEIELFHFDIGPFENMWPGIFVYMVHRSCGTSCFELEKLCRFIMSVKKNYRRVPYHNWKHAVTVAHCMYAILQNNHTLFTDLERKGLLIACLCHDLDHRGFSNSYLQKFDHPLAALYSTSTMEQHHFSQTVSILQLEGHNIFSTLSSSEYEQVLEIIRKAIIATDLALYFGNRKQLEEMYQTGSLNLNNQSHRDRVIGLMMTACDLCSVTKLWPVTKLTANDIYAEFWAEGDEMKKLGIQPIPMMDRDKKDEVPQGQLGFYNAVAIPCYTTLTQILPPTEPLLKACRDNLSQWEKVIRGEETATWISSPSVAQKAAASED
endpoint: IC50

compound=CN1CC(=O)N2[C@H](c3ccc(Br)cc3)c3[nH]c4ccccc4c3C[C@H]2C1=O test_target="PDE10A (Homo sapiens, UniProt Q9Y233)" endpoint=IC50 measured_value="> 50 µM"
compound=CCN1C(=O)[C@@H]2Cc3c([nH]c4ccccc34)[C@@H](c3ccc(Br)cc3)N2C1=O test_target="PDE10A (Homo sapiens, UniProt Q9Y233)" endpoint=IC50 measured_value="> 50 µM"
compound="CN1CC(=O)N2[C@H](c3ccc4c(c3)OCO4)c3[nH]c4ccccc4c3C[C@@H]2C1=O [Compound I, tadalafil, reference compound]" test_target="PDE10A (Homo sapiens, UniProt Q9Y233)" endpoint=IC50 measured_value="> 50 µM"

====

molecular target: human PDE5 (Homo sapiens, UniProt O76074); assay: PDE5 inhibition, IMAP fluorescence polarization phosphodiesterase assay; format: biochemical; conditions: read-out: % PDE5 inhibition at 10 μM
endpoint: inhibition at 10 µM (%)

compound="CCCCN1CC(=O)N2[C@H](c3ccc(Br)cc3)c3[nH]c4ccccc4c3C[C@H]2C1=O [Compound 36]" endpoint="inhibition at 10 µM" measured_value=92
compound="CN1CC(=O)N2[C@H](c3ccc(Br)cc3)c3[nH]c4ccccc4c3C[C@@H]2C1=O [Compound 25]" endpoint="inhibition at 10 µM" measured_value=98
compound="CCC(C)N1C(=O)[C@H]2Cc3c([nH]c4ccccc34)[C@H](c3ccc(Br)cc3)N2C1=O (stereo partly shown) [Compound 14]" endpoint="inhibition at 10 µM" measured_value=67
compound="CCCCN1C(=O)[C@@H]2Cc3c([nH]c4ccccc34)[C@H](c3ccc(Br)cc3)N2C1=O [Compound 11]" endpoint="inhibition at 10 µM" measured_value=81.5
compound="CCN1CC(=O)N2[C@@H](c3ccc(Br)cc3)c3[nH]c4ccccc4c3C[C@H]2C1=O [Compound 31]" endpoint="inhibition at 10 µM" measured_value=83
compound="CCC(C)N1C(=O)[C@H]2Cc3c([nH]c4ccccc34)[C@@H](c3ccc(Br)cc3)N2C1=O (stereo partly shown) [Compound 13]" endpoint="inhibition at 10 µM" measured_value=83
compound="CCN1CC(=O)N2[C@H](c3ccc(Br)cc3)c3[nH]c4ccccc4c3C[C@H]2C1=O [Compound 32]" endpoint="inhibition at 10 µM" measured_value=98.7

====

biological target: UniProtKB O76074; test: PDE5 inhibition, IMAP fluorescence polarization phosphodiesterase assay; type: biochemical
pIC50: −log10 of the molar value.
endpoint: pIC50

compound="CCN1CC(=O)N2[C@H](c3ccc(Br)cc3)c3[nH]c4ccccc4c3C[C@H]2C1=O [Compound 32]" endpoint=pIC50 measured_value="> 8.00"
compound="COC(=O)[C@@H]1Cc2c([nH]c3ccccc23)[C@H](c2ccc(Br)cc2)N1C(=O)CCl [Compound 23]" endpoint=pIC50 measured_value="< 5.00"
compound="CC(C)(C)N1CC(=O)N2[C@H](c3ccc(Br)cc3)c3[nH]c4ccccc4c3C[C@@H]2C1=O [Compound 37]" endpoint=pIC50 measured_value="< 5.00"
compound="CCCCN1C(=O)[C@@H]2Cc3c([nH]c4ccccc34)[C@H](c3ccc(Br)cc3)N2C1=O [Compound 11]" endpoint=pIC50 measured_value="< 5.00"

src = paper PMC4994520
